# Test system: NCI-H322M lung
# method: NCI-60 one-dose screen, 48 h (100 = growth as untreated, 0 = no growth, -100 = all killed)
# test-context: 10 µM unless noted
About 83,000 compounds went through this panel and 20% of them were active in at least one assay; those are over-represented in the sample as a whole.
measured-parameter: growth (%)
Write down the numeric answer in % and omit the unit.

Solved entries:
molecule | u | growth
C[C@H](NC(=O)c1snnc1C1CC1)c1c(F)cccc1Cl | % | 123
CCCCCN(CCCCC)C(=O)C(CCC(=O)O)NC(=O)c1ccc(Cl)c(Cl)c1 (stereo unspecified) | % | 102
CCN(CC)CCNC(=O)n1cc(-c2ccncc2)c(-c2ccc(Cl)c(OC)c2)n1 | % | 118
FC(F)(F)c1nn[nH]n1 | % | 111
CN1CCC2(CC1)N=C(SCC(=O)Nc1cnc3ccccc3c1)C(c1ccc(Br)cc1)=N2 | % | 50.8

Exercise: Record request: growth value, item Oc1c(C(Nc2ccccc2Br)c2ccccc2)ccc2cccnc12 (stereo unspecified)
Solution: 24.5
